System: CCRF-CEM leukemia
RUN_DESCRIPTION: NCI-60 one-dose screen, 48 h (100 = growth as untreated, 0 = no growth, -100 = all killed)
CONDITIONS_USED: 10 µM unless noted
About 83,000 compounds went through this panel and 20% of them were active in at least one assay; those are over-represented in the sample as a whole.
API: label(entry) gives TRUE if the entry's growth is strictly smaller than 20%; on equality or larger values it gives FALSE.

CO[C@H]1CC(O[C@@H]2/C(C)=C/C[C@@H]3C[C@@H](C[C@]4(CC[C@H](C)[C@@H](C5CCCCC5)O4)O3)OC(=O)[C@@H]3C=C(C)/C(=N/O)[C@H]4OC/C(=C\C=C\[C@@H]2C)[C@]43O)O[C@@H](C)C1O (some centres not stated); TRUE
C=C1c2c(C)nn(-c3ccc(C#CCOC4OC(CO)C(O)C(O)C4O)cc3)c2N(C)C23C[C@H]1C1(C)c4c(C)nn(-c5ccc(C#CCOC6OC(CO)C(O)C(O)C6O)cc5)c4N(C)C(C)(C[C@H]12)C3 (some centres not stated); TRUE
CN(CCOc1ccc(CC2SC(=O)NC2=O)cc1)c1ccccn1 (configuration not stated); FALSE

**Query** # TODO verify growth < 20% strictly for this compound: COc1cc(/C=C/C(=O)c2c(-c3ccc(F)cc3)nc3sc(C)nn23)cc(OC)c1OC
**Result** TRUE

----------
Tested on: M14 melanoma
RUN_DESCRIPTION: NCI-60 one-dose screen, 48 h (100 = growth as untreated, 0 = no growth, -100 = all killed)
CONDITIONS_USED: 10 µM unless noted
The panel holds about 83,000 compounds, 20% with a hit somewhere; the sample as a whole holds those more often.
RECORDED_METRIC: growth (%)
One number for each entry, in %.

COC(=O)C[C@@H]1CC=CC(=O)/C1=C(O)/C=C/c1ccccc1; -70.2

Please state, for each entry, its recorded growth.
1. O=C(/C(=N/O)S(=O)(=O)c1ccccc1)c1cccs1
2. COc1ccccc1[C@H]1c2[nH]c3ccccc3c2C[C@H]2C(=O)N(CCCCCCC(=O)NO)CC(=O)N12
3. COc1ccc(CCN2CCCN3C2=Nc2ccccc2S3(=O)=O)cc1
4. CCN(CC)CCOc1ccc(C2=C(c3ccccc3)CCc3cc(OC)ccc32)cc1

**Result**
105
36.3
31.1
-63.6

----------
Tested on: ACHN renal
RUN_DESCRIPTION: NCI-60 one-dose screen, 48 h
CONDITIONS_USED: 10 µM unless noted
The panel holds about 83,000 compounds, 20% with a hit somewhere; the sample as a whole holds those more often. Activity calls are given as the source filed them. The calls were made as follows: active = growth percent below 10; inactive = the rest.
Outcomes you can answer with include only these: Y (active), N (inactive)

Answered cases to consult:
Nc1ncc(-c2cnn(C3CCNCC3)c2)cc1-c1nc2cc(Cl)ccc2o1; Y
Clc1ccc2c(Nc3ccc4oc(NCCN5CCCC5)nc4c3)ccnc2c1; N
Cc1ccc(NC(=O)CSc2nnc3n(Cc4ccccc4)c(=O)c4c(C)c(C(N)=O)sc4n23)cc1; N
COc1ccc(C2=NN(C(=O)c3cc(OC)c(OC)c(OC)c3)C(c3ccc(C#N)cc3)C2)cc1OC (stereo not given); N
Cc1ccc(C(C)C)cc1NC(=O)Nc1ccc([N+](=O)[O-])cc1; Y
C=C(C)[C@@H]1C[C@H](O)Cc2cc(Cl)cc(Cl)c2N1; N
Cc1cc(C)c2c(c1)N1OC(C2)C[C@H]1/C=C/c1ccccc1 (stereo not given in full); N
c1coc([C@@H]2C[C@@H]3Cc4ccc5ccccc5c4N2O3)c1; N
O=C1/C(=C/c2ccc3cccc(Cl)c3n2)SC(=S)N1CCc1ccc(O)cc1; N

**Query** Lab log entry: Cc1cc(N2CCOCC2)nc(N2CCOCC2)n1 — outcome as called in the assay?
**Result** N

----------
Tested on: HT29 colon
RUN_DESCRIPTION: NCI-60 one-dose screen, 48 h (100 = growth as untreated, 0 = no growth, -100 = all killed)
CONDITIONS_USED: 10 µM unless noted
Compounds without any hit were thinned out: in the full panel of roughly 83,000, 20% have a hit.
Hi there, I'd appreciate the recorded growth for every entry that follows.
Give bare numbers, in %.

Please state, for each entry, its recorded growth.
1. COC(=O)[C@]12CC[C@@H](C)[C@H](C)[C@@H]1C1=CC[C@@H]3[C@@]4(C)C[C@@H](OC(=O)c5ccco5)[C@H](O)[C@@](C)(CO)[C@@H]4[C@H](O)C[C@@]3(C)[C@]1(C)CC2
2. CC/C(=C\c1ccc(N(C)C)cc1)c1nc2ccccc2c(=O)[nH]1
3. Cc1cc2c(cc1C)Nc1sc(NC(=O)CN3CCN(C)CC3)nc1C(=O)N2

**Result**
1. -92.8
2. 81.7
3. 99.8

Please state, for each entry, its recorded growth.
1. Cc1nc(N)[nH]c(=O)c1C
2. Cc1cc(C(=O)O)c(C)cc1C(=O)O
3. CCC(CC)NCCCCCNc1cc(OC)cc2cccnc12
4. O=C1c2ccccc2-c2c1nc1ccccc1[n+]2[O-]
5. O=C(c1ccccc1)c1ccco1
6. O=C(CSCC(=O)N/N=C/c1ccccc1O)N/N=C\c1ccccc1O
7. CC(C)[C@H]1CC[C@H]2[C@@H](CC[C@H]3[C@](C)(CN)CCC[C@]23C)C1

**Result**
107
103
77.3
105
103
42.7
-57.7

----------
Test system: SF-539 CNS
RUN_DESCRIPTION: NCI-60 one-dose screen, 48 h
CONDITIONS_USED: 10 µM unless noted
Compounds without any hit were thinned out: in the full panel of roughly 83,000, 20% have a hit. The source made the active and inactive calls. How the source made its calls: active means growth percent below 10; inactive means the rest.
Outcomes you can answer with include only these: active, inactive

O=C(c1ccccc1)c1ccccc1Cl; inactive
COc1cc(/C=C2\COc3ccc(O)c(O)c3C2=O)cc(OC)c1; active
CCOC(=O)C(C(C)=O)c1nc2sc3cc(Cl)ccc3n2c(=N)c1C#N (stereo not given); inactive
Cc1ccc2c(c1)C(=O)/C(=C/c1ncc([N+](=O)[O-])n1C)O2; inactive
CSc1nnc(C2=CC(=O)c3ccccc3C2=O)n1-c1ccccc1; inactive
O=C(c1ccccc1)c1ccco1; inactive

**Query** Lab log entry: Clc1ccc(-c2nc(-c3cccs3)no2)c(Cl)c1 — outcome as called in the assay?
**Result** inactive

**Query** Lab log entry: Cn1c(=O)c2nc(SCc3ccccc3)n(C)c2n(C)c1=O — outcome as called in the assay?
**Result** inactive

**Query** Lab log entry: c1ccc(Nc2nnc(-c3cc(-c4cccnc4)n(-c4ccccc4)n3)s2)cc1 — outcome as called in the assay?
**Result** inactive

----------
System: EKVX NSCLC
RUN_DESCRIPTION: NCI-60 one-dose screen, 48 h (100 = growth as untreated, 0 = no growth, -100 = all killed)
CONDITIONS_USED: 10 µM unless noted
Compounds without any hit were thinned out: in the full panel of roughly 83,000, 20% have a hit.
Hi there, I'd appreciate the recorded growth for every entry that follows.
Give bare numbers, in %.

Study these solved cases before continuing.
CC12CCCCC1C(C(N)=O)C(=O)O2 (stereo not given); 123
Cc1cc(C)c2c(c1)N1OC(C2)C[C@H]1/C=C/c1ccccc1 (stereo not given in full); 90
C=C1CC[C@@H]2[C@](C)(COC(C)=O)[C@H](OC(C)=O)CC[C@@]2(C)[C@@H]1CC(Nc1ccc(S(=O)(=O)Nc2cc(C)on2)cc1)C1=CCOC1=O (stereo not given in full); 81.9

Please state, for each entry, its recorded growth.
1. CCOC(=O)c1c2c(c(C)n1Cc1ccc(OC)cc1)-c1nc(N)ncc1CC2
2. Nc1ccccc1-c1ccc([N+](=O)[O-])cc1
3. CCOC(=O)c1c2c(c(C)n1Cc1ccccc1)-c1nc(N)ncc1CC2
4. COC(=O)[C@]1(CCSC)N[C@H](c2cn(-c3ccccc3)nc2C)[C@@H]2C(=O)N(c3ccccc3)C(=O)[C@@H]21
5. Cc1cc(C)c(OC(=O)CSc2nc3ccccc3c(=O)n2CCc2ccccc2)cc1C

**Result**
1: 98.8; 2: 74.6; 3: 88.9; 4: 107; 5: 64.4

Please state, for each entry, its recorded growth.
1. C=C(C[C@@](O)(C(=O)Oc1ccccc1)C(=O)C1CCCCC1)c1ccccc1
2. Cn1c(N)c(N=O)c(=O)[nH]c1=O

**Result**
[94.4, 98]

----------
Test system: KM12 colon
RUN_DESCRIPTION: NCI-60 one-dose screen, 48 h (100 = growth as untreated, 0 = no growth, -100 = all killed)
CONDITIONS_USED: 10 µM unless noted
Compounds without any hit were thinned out: in the full panel of roughly 83,000, 20% have a hit.
Each entry falls into one class according to its growth; the ranges are Low: < 70%; Medium: ≥ 70% and < 90%; High: ≥ 90%

Answered cases to consult:
O=C(CSc1nc2c(n1Nc1ccccc1)-c1ccccc1SC2)Nc1nc(-c2ccc(Cl)cc2)cs1; Low
NNC(=O)NO; High
CC[C@H](C)C(=O)O[C@H]1C[C@@H](C)C=C2C=C[C@H](C)[C@H](CC[C@@H]3C[C@@H](O)CC(=O)O3)[C@H]21; High
Nc1c2ccccc2nc2ccccc12 (tested in a mixture with another compound); Low
O=C(C=C=Nc1ccccc1)C(=O)N=C=Cc1ccccc1; Medium

**Query** Which category does the recorded growth put CC12CCC3C(CCC4CC(=O)/C(=C\O)CC43C)C1CCC(=O)O2 (stereo not given) in?
**Result** High

**Query** Which category does the recorded growth put O=C1C(Cl)=C(N=Nc2c(Cl)c(O)c3ccccc3c2O)C(=O)c2ccccc21 in?
**Result** Medium

**Query** Which category does the recorded growth put Fc1ccc(-c2nc(Nc3ccc(-c4nc5ccccc5[nH]4)cc3)nc(N3CCOCC3)n2)cc1 in?
**Result** Low

Reference for the values: PubChem BioAssay (NCI)
